Target: T1, VEGF(8-109) (human, UniProt P15692)
T1 chain: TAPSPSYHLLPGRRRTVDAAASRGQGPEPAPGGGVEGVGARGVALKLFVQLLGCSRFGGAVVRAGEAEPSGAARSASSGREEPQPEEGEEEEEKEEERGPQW
Test: SPR, 25C
Exercise: state measured pKd for each of the binders provided.
Numbers only, as −log10 of the molar value.

BINDER: Y0241-6 (antibody, V domains shown) VH: EVQLVESGGGLVQPGGSLRLSCAASGYDYTNYGINWVRQAPGKGLEWVGWINTYTGEPTYAADFKRRFTFSLDTSKSTAYLQMNSLRAEDTAVYYCAKYPHYYGSSHWYFDVWGQGTL VL: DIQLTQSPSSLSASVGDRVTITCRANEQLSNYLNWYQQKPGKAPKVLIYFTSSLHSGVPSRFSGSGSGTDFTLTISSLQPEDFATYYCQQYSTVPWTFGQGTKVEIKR
pKd: 8.57

Batch of 2 binders: report pKd for each.
1. Y0239-2 (antibody, V domains shown) VH: EVQLVESGGGLVQPGGSLRLSCAASGYTFTNYGMNWVRQAPGKGLEWVGWINTYTGEPTYAADFKRRFTFSLDTSKSTAYLQMNSLRAEDTAVYYCAKYPHYYKNDKSSHWYFDVWGQGTL VL: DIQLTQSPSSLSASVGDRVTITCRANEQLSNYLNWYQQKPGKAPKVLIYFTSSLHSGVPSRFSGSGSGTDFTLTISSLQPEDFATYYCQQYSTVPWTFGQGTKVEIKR
2. Y0240-1 (antibody, V domains shown) VH: EVQLVESGGGLVQPGGSLRLSCAASGYTFTNYGMNWVRQAPGKGLEWVGWINTYTGEPTYAADFKRRFTFSLDTSKSTAYLQMNSLRAEDTAVYYCAKYPHYYLTDHKSHWYFDVWGQGTL VL: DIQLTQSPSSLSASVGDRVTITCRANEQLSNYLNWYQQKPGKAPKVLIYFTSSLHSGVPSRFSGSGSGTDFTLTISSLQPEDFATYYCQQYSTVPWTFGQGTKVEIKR

// result
1. 8.34
2. 9.30
